The reported numbers originate from ChEMBL document CHEMBL1148572.

- TARGET_OF_ASSAY: 5-hydroxytryptamine receptor 2C (Homo sapiens, UniProt P28335)
- Sequence (P28335 whole entry): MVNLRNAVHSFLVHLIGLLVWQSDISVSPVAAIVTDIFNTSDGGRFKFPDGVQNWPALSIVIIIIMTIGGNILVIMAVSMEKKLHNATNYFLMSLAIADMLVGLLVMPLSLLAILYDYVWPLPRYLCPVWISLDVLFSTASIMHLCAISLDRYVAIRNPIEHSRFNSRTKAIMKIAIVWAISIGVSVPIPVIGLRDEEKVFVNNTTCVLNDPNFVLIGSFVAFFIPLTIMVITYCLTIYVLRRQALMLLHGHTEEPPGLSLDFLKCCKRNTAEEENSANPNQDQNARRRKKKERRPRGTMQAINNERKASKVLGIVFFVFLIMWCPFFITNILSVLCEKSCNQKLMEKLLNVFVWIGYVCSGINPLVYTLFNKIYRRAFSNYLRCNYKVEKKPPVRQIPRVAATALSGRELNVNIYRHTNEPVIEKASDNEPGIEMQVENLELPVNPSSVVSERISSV
Ki vs 4 nM: less than gives class 1; not less than gives class 0.

Lookup: Strictly below 4 nM in Ki? C[C@H](N)Cn1ncc2ccc(O)cc21
Found: class 1

Lookup: Dear colleague, could you confirm whether Ki of C[C@H](N)Cn1ncc2ccc(O)c(Cl)c21 falls below 4 nM? Thanks.
Found: class 1

Lookup: Consider the compound C[C@H](N)Cn1ncc2ccc(O)c(I)c21 . Is its Ki strictly less than 4 nM?
Found: class 0

---
Lookup: Please determine if C[C@@H](N)Cn1ncc2ccc(O)cc21 is below 4 nM in terms of Ki.
Found: class 0

Lookup: Report whether reported Ki is lower than 4 nM (strictly) for Cc1c(O)ccc2cnn(C[C@H](C)N)c12
Found: class 1

Lookup: Confirm or reject: Ki of COc1ccc2cnn(C[C@H](C)N)c2c1 lies strictly below 4 nM
Found: class 1

Lookup: Find out if reported Ki for C[C@H](N)Cn1ncc2ccc(O)c(F)c21 is less than 4 nM
Found: class 1

Lookup: Given the entry NCCn1ncc2ccc(O)cc21 , would its reported Ki be below 4 nM?
Found: class 0

* * *

A set of molecules tested on 5-hydroxytryptamine receptor 2A (Rattus norvegicus), with measured pIC50:
In plain terms, pIC50 is the concentration in mol/L turned into minus its base-10 logarithm.

Lookup: Provide only the value of recorded pIC50 for NCCn1ncc2ccc(O)cc21
Found: 9.11

Lookup: // Input: COc1ccc2[nH]cc(CCN(C)C)c2c1 . Output its pIC50 only.
Found: 8.02

Lookup: Return pIC50 (reported value) for this molecule: C[C@H](N)Cn1ncc2ccc(O)c(Cl)c21
Found: 9.27

Lookup: Supply recorded pIC50 for COc1ccc2[nH]cc(CC(C)N)c2c1 (stereo unspecified) here.
Found: 8.70

Lookup: Answer with the recorded pIC50 for the molecule listed here: C[C@H](N)Cn1ncc2ccc(O)c(F)c21
Found: 9.14

New cases:
Lookup: Write down pIC50 measured for item C[C@H](N)Cn1ncc2ccc(O)cc21
Found: 9.24

Lookup: Identify the reported pIC50 for the following entry. Cc1c(O)ccc2cnn(C[C@H](C)N)c12
Found: 9.13

* * *

- TARGET_OF_ASSAY: 5-hydroxytryptamine receptor 6 (Homo sapiens)
- Sequence (P50406 whole entry): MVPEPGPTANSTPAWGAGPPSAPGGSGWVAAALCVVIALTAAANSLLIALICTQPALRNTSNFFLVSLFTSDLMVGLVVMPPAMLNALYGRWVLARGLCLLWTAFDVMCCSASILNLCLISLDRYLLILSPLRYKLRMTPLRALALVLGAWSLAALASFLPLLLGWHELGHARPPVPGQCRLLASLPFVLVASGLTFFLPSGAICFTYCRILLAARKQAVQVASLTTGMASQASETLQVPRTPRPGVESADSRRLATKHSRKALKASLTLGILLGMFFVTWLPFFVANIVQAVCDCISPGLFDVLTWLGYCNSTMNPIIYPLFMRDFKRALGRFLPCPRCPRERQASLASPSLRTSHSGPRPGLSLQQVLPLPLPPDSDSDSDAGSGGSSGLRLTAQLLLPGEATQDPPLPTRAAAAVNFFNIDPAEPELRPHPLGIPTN
- PROCEDURE_TEXT: Inhibitory activity against 5HT6 receptor
PROPERTY_NAME: Ki

Lookup: Please look at this compound and report its Ki: C[C@H](N)Cn1ncc2ccc(O)cc21
Found: > 10 µM
